Tested on: OVCAR-8 ovarian
Test: NCI tumour cell line growth inhibition, 48 h
The following compounds are shown together with reported TGI values.

compound=CC(=O)SC(SC(C)=O)SC(C)=O system_under_test="OVCAR-8 ovarian" test_result="> 100 µM"

Report value: TGI, system: OVCAR-8 ovarian, compound: `COC(=O)[C@]1(C)CCC[C@]2(C)[C@@H](CCC(=O)C(C)C)[C@]3(C=O)O[C@@H]3C[C@H]21`
> 100 µM

Report value: TGI, system: OVCAR-8 ovarian, compound: C1=C(c2ccccc2)O[C@H](COCc2ccccc2)C(OCc2ccccc2)[C@@H]1OCc1ccccc1 (some centres not stated)
> 10 µM

Report value: TGI, system: OVCAR-8 ovarian, compound: `CCCOc1ccc(/C=N/Nc2cc(C)nc3ccc(Cl)cc23)cc1`
4.53 µM

Report value: TGI, system: OVCAR-8 ovarian, compound: OCC1OC(n2cnc3c(SCc4ccccc4)ncnc32)C(O)C1O (configuration not stated)
37.4 µM

Report value: TGI, system: OVCAR-8 ovarian, compound: `Nc1nc(N)c2ncn(-c3ccccc3)c2n1`
> 100 µM

Report value: TGI, system: OVCAR-8 ovarian, compound: C=C1c2[nH]c3ccccc3c2CC(C(=O)O)N1C(O)c1ccc(S(=O)(=O)O)cc1 (configuration not stated)
> 100 µM

Report value: TGI, system: OVCAR-8 ovarian, compound: `O=C1/C(=C\c2ccccc2)CN(C(=O)c2ccccc2)C/C1=C\c1ccccc1`
11.1 µM

Report value: TGI, system: OVCAR-8 ovarian, compound: `CN1c2ccccc2C(=O)NC12CCNCC2`
> 100 µM

----------
The following molecules are shown together with reported TGI values.
Tested on: SR leukemia
Assay: NCI tumour cell line growth inhibition, 48 h

Reference set (4 entries):
molecule="CCN1C(=O)N(CC)C2C1NC(=S)N2/N=C/C=C/c1ccccc1OC (stereo not given)" test_result="> 100 µM"
molecule="CC(C)CC(NC=O)C(=O)NC(Cc1ccccc1)NC(=O)CNC(=O)C(C)NC(=O)C(N)Cc1ccc(O)cc1 (stereo not given)" test_result="> 100 µM"
molecule=O=[N+]([O-])c1ccc(CN=C2NNS(=O)(=O)c3ccccc32)cc1 test_result="99.7 µM"
molecule=c1ccc(-c2cc(-c3ccncc3)cc(-c3ccncc3)n2)cc1 test_result="> 100 µM"

Report value: TGI, system: SR leukemia, molecule: NC(Cc1ccccc1)c1nn[nH]n1 (stereo not given)
> 100 µM

Report value: TGI, system: SR leukemia, molecule: CCCCN(CCCC)CC(C(=O)Nc1ccc([N+](=O)[O-])cc1[N+](=O)[O-])/C(C)=N\NC(=O)C[N+](C)(C)C (stereo not given)
49.7 µM

Report value: TGI, system: SR leukemia, molecule: CCC(C)CC(C)C(=O)c1c(O)ccn(O)c1=O (stereo not given)
18.3 µM

Report value: TGI, system: SR leukemia, molecule: CO[C@H]1O[C@@H]2OC3(C)CCC4[C@H](C)CCC([C@H]1C)[C@]42OO3 (stereo not given in full)
> 100 µM

Report value: TGI, system: SR leukemia, molecule: `O=C(c1cccs1)c1nc2cc(Cl)ccc2[n+]([O-])c1C(F)(F)F`
> 100 µM

Report value: TGI, system: SR leukemia, molecule: `CN1c2ccccc2C(=O)NC12CCNCC2`
> 100 µM

----------
Test system: DMS 273 small cell lung
Assay: NCI tumour cell line growth inhibition, 48 h
Readout kind: TGI

Reference set (5 entries):
molecule="O=C1NC(=O)C2C1C1C=C3c4ccccc4N(c4ccccc4)C32[C@H]2C(=O)NC(=O)[C@@H]12 (stereo not given in full)" readout_kind=TGI test_result="> 100 µM"
molecule="C=CCC12CCC(=O)[C@@]1(C)CC=C(O)C2=O (stereo not given in full)" readout_kind=TGI test_result="> 100 µM"
molecule="NC(CO)c1ccc(OCc2ccccc2)cc1 (stereo not given)" readout_kind=TGI test_result="> 100 µM"
molecule=CC(=O)Oc1ccc(Nn2c3ccccc3c3ccccc32)c(C)c1 readout_kind=TGI test_result="51.9 µM"
molecule=Cc1cc2c(cc1C)[n+](=O)c(C(=O)CC(=O)C(=O)Nc1ccccc1C(C)C)c(C)n2[O-] readout_kind=TGI test_result="> 100 µM"

API: the following record is the query input.
For the molecule `CCc1nc2ccccc2c(=O)n1/N=C(\N=Nc1ccc(Cl)cc1)c1ccccc1` , give its measured TGI value.
50 µM

----------
The following molecules are shown together with reported GI50 values.
Tested on: SK-MEL-5 melanoma
Experiment: NCI tumour cell line growth inhibition, 48 h

Reference set (3 entries):
molecule=CCOC(=O)[C@@H](C)C[C@H](Cc1ccccc1)NC(=O)c1csc([C@@H](C[C@H](C(C)C)N(C)C(=O)[C@@H](NC(=O)[C@H]2C[C@H](O)CCN2C)C(C)C)OC(C)=O)n1 readout_kind=GI50 test_result="0.00175 µM"
molecule=CCOC(=O)Nc1ccc2c(c1)N(C(=O)CCN(CC)CC)c1ccccc1S2 readout_kind=GI50 test_result="36.1 µM"
molecule=N#Cc1c2ccccc2c2nnc3ccc(C(F)(F)F)cc3n12 readout_kind=GI50 test_result="16.1 µM"

API: the following record is the query input.
For the molecule `CN(CSc1ccc(Cl)cc1)c1ccc(CSc2ccc(Cl)cc2)cc1` , give its measured GI50 value.
6.85 µM

----------
System: UO-31 renal
Experiment: NCI tumour cell line growth inhibition, 48 h
Readout kind: TGI

Reference set (2 entries):
compound=C/C(=N/NC(=S)N1CC2CCC(CC2)C1)c1cnccn1 system_under_test="UO-31 renal" readout_kind=TGI test_result="2.02 µM"
compound="CC(Cc1cccc2c1Nc1ccccc1S2)N(C)CCO (configuration not stated)" system_under_test="UO-31 renal" readout_kind=TGI test_result="> 100 µM"

For the compound `C/C(=C\CNc1ncnc2c1ncn2CCC(=O)OC(C)(C)C)CO` , give its measured TGI value.
> 100 µM

For the compound `CCOC(=O)Nc1n[nH]nc1Cl` , give its measured TGI value.
> 100 µM

For the compound C=C1C(=O)c2cc3c(cc2C(c2cc(OC)c(OC)c(OC)c2)[C@@H]1C(=O)O)OCO3 (some centres not stated) , give its measured TGI value.
> 100 µM

For the compound `C=C(CN1CCN(c2ccccc2C(F)(F)F)CC1)c1ccc(C(=O)Nc2ccccc2N)cc1` , give its measured TGI value.
> 60.3 µM

For the compound CCc1cccc(CC)c1NC(=O)CC1SC(N)=NC1=O (configuration not stated) , give its measured TGI value.
> 100 µM

For the compound `NCCCNc1nc2ccc(Cl)cc2c2c(=O)c3cc(F)ccc3sc12` , give its measured TGI value.
16.1 µM

For the compound `CC(=O)N(CCN1C(=O)c2ccccc2C1=O)CCN1C(=O)c2ccccc2C1=O` , give its measured TGI value.
> 100 µM

For the compound CCC(c1ccc(OC)cc1)C1NC(=S)NC1=O (configuration not stated) , give its measured TGI value.
> 50 µM

For the compound CCOC(=O)C1=CNC(C(=O)OCC)C1c1cccn1-c1ccccc1 (configuration not stated) , give its measured TGI value.
> 100 µM

For the compound Fc1cccc(C2SCc3nc4cc5ccccc5cc4n32)c1 (configuration not stated) , give its measured TGI value.
> 100 µM

----------
The following molecules are shown together with reported TGI values.
System: OVCAR-4 ovarian
Assay: NCI tumour cell line growth inhibition, 48 h

Reference set (6 entries):
molecule=CN1CC=C(c2cccn2C)CC1 test_result="> 100 µM"
molecule="O=C1CCCCC1C(O)(C(F)(F)F)C(F)(F)Cl (stereo unspecified)" test_result="> 10 µM"
molecule="Fc1ccc(C2SCc3nc4ccccc4n32)cc1F (stereo unspecified)" test_result="98.9 µM"
molecule="C=CC(OC(=O)C(C)C)c1ccc(OC(=O)C(C)C)cc1 (stereo unspecified)" test_result="33.8 µM"
molecule=CCOC(=O)C1(C#N)C(C#N)(C#N)C1(C#N)C#N test_result="> 100 µM"
molecule=c1ccc2cc(CNCCCCNCCCNCc3ccc4ccccc4c3)ccc2c1 test_result="3.08 µM"

For the molecule `Cc1c(-c2nc(N)c(C#N)c(N)c2C#N)c(=O)oc2ccccc12` , give its measured TGI value.
> 100 µM

For the molecule `CC(=O)N(CCN1C(=O)c2ccccc2C1=O)CCN1C(=O)c2ccccc2C1=O` , give its measured TGI value.
> 100 µM

For the molecule `O=C(c1cccs1)c1nc2cc(Cl)ccc2[n+]([O-])c1C(F)(F)F` , give its measured TGI value.
> 100 µM

For the molecule `O=[N+]([O-])c1ccc(CN=C2NNS(=O)(=O)c3ccccc32)cc1` , give its measured TGI value.
> 100 µM

For the molecule `NCCCNc1nc2ccc(Cl)cc2c2c(=O)c3cc(F)ccc3sc12` , give its measured TGI value.
18 µM
